- Test system: Klebsiella pneumoniae
- assay_method_text: Antibacterial activity against Klebsiella pneumoniae ATCC 27736 after 16 hrs by microtiter broth dilution method
- Format: functional
- recorded_conditions: ATCC 27736, 16 h
Quick reference for MIC among some molecules

{"molecule": "COc1ccc(C(=O)/C=C/c2cc(/C=N/c3nc(-c4ccc(OC)cc4)cs3)c(O)c(C(C)(C)C)c2)cc1", "MIC": "> 94.9 µM"}
{"molecule": "OC(Cn1cncn1)(Cn1cncn1)c1ccc(F)cc1F [FLUCONAZOLE]", "MIC": "> 34.5 µM"}
{"molecule": "CCn1cc(C(=O)O)c(=O)c2cc(F)c(N3CCNCC3)cc21 [NORFLOXACIN]", "MIC": "0.1 µM"}
{"molecule": "CCOC(=O)c1csc(/N=C/c2cc(/C=C/C(=O)c3ccc(OC)cc3)cc(C(C)(C)C)c2O)n1", "MIC": "> 102 µM"}

* * *

- Test system: Cryptococcus neoformans
- assay_method_text: Antifungal activity against Cryptococcus neoformans after 16 hrs by microtiter broth dilution method
- Type: functional
Quick reference for MIC among some molecules

{"molecule": "CN[C@H](CC(C)C)C(=O)N[C@H]1C(=O)N[C@@H](CC(N)=O)C(=O)N[C@H]2C(=O)N[C@H]3C(=O)N[C@H](C(=O)N[C@H](C(=O)O)c4cc(O)cc(O)c4-c4cc3ccc4O)[C@H](O)c3ccc(c(Cl)c3)Oc3cc2cc(c3O[C@@H]2O[C@H](CO)[C@@H](O)[C@H](O)[C@H]2O[C@H]2C[C@](C)(N)[C@H](O)[C@H](C)O2)Oc2ccc(cc2Cl)[C@H]1O [VANCOMYCIN]", "MIC": "157 µM"}
{"molecule": "OC(Cn1cncn1)(Cn1cncn1)c1ccc(F)cc1F [FLUCONAZOLE]", "MIC": "1.4 µM"}
{"molecule": "CCOC(=O)c1csc(/N=C/c2cc(/C=C/C(=O)c3ccc(OC)cc3)cc(C(C)C)c2O)n1", "MIC": "> 104 µM"}
{"molecule": "CCn1cc(C(=O)O)c(=O)c2cc(F)c(N3CCNCC3)cc21 [NORFLOXACIN]", "MIC": "33.6 µM"}
{"molecule": "CCOC(=O)c1csc(/N=C/c2cc(/C=C/C(=O)c3ccc(OC)cc3)cc(C(C)(C)C)c2O)n1", "MIC": "> 102 µM"}

* * *

- Tested on: Trichophyton mentagrophytes
- assay_method_text: Antifungal activity against Trichophyton mentagrophytes after 16 hrs by microtiter broth dilution method
- Format: functional
property_measured: MIC

{"cpd_smiles": "CCOC(=O)c1csc(/N=C/c2cc(/C=C/C(=O)c3ccco3)cc(C(C)(C)C)c2O)n1", "value_observed": "> 110 µM"}
{"cpd_smiles": "CCn1cc(C(=O)O)c(=O)c2cc(F)c(N3CCNCC3)cc21", "value_observed": "33.6 µM"}
{"cpd_smiles": "COc1ccc(-c2csc(/N=C/c3cc(/C=C/C(=O)c4ccc(C)cc4)cc(C(C)(C)C)c3O)n2)cc1OC", "value_observed": "> 92.5 µM"}
{"cpd_smiles": "CCCc1cc(/C=C/C(=O)c2ccco2)cc(/C=N/c2nc(C(=O)OCC)cs2)c1O", "value_observed": "> 102 µM"}
{"cpd_smiles": "COc1ccc(-c2csc(/N=C/c3cc(/C=C/C(=O)c4ccc(C)cc4)cc(C(C)(C)C)c3O)n2)cc1", "value_observed": "> 97.9 µM"}
{"cpd_smiles": "C[C@@H]1[C@H](O)[C@@H](C)/C=C/C=C/C=C/C=C/C=C/C=C/C=C/[C@H](O[C@@H]2O[C@H](C)[C@@H](O)[C@H](N)[C@@H]2O)C[C@@H]2O[C@](O)(C[C@@H](O)C[C@@H](O)[C@H](O)CC[C@@H](O)C[C@@H](O)CC(=O)O[C@H]1C)C[C@H](O)[C@H]2C(=O)O", "value_observed": "0.3 µM"}
{"cpd_smiles": "COc1ccc(-c2csc(/N=C/c3cc(/C=C/C(=O)c4cccs4)cc(C(C)(C)C)c3O)n2)cc1OC", "value_observed": "> 93.9 µM"}
{"cpd_smiles": "CCOC(=O)c1csc(/N=C/c2cc(/C=C/C(=O)c3ccc(OC)cc3)cc(C(C)C)c2O)n1", "value_observed": "> 104 µM"}
{"cpd_smiles": "CCOC(=O)c1csc(/N=C/c2cc(/C=C/C(=O)c3cccs3)cc(C(C)(C)C)c2O)n1", "value_observed": "> 107 µM"}
{"cpd_smiles": "CCOC(=O)c1csc(/N=C/c2cc(/C=C/C(=O)c3ccc(OC)cc3)cc(C(C)(C)C)c2O)n1", "value_observed": "> 102 µM"}
{"cpd_smiles": "CCOC(=O)c1csc(/N=C/c2cc(/C=C/C(=O)c3ccc(C)cc3)cc(C(C)(C)C)c2O)n1", "value_observed": "> 105 µM"}
{"cpd_smiles": "CN[C@H](CC(C)C)C(=O)N[C@H]1C(=O)N[C@@H](CC(N)=O)C(=O)N[C@H]2C(=O)N[C@H]3C(=O)N[C@H](C(=O)N[C@H](C(=O)O)c4cc(O)cc(O)c4-c4cc3ccc4O)[C@H](O)c3ccc(c(Cl)c3)Oc3cc2cc(c3O[C@@H]2O[C@H](CO)[C@@H](O)[C@H](O)[C@H]2O[C@H]2C[C@](C)(N)[C@H](O)[C@H](C)O2)Oc2ccc(cc2Cl)[C@H]1O", "value_observed": "157 µM"}
{"cpd_smiles": "COc1ccc(C(=O)/C=C/c2cc(/C=N/c3nc(-c4ccc(OC)c(OC)c4)cs3)c(O)c(C(C)(C)C)c2)cc1", "value_observed": "> 89.8 µM"}

* * *

- Tested on: Escherichia coli
- assay_method_text: Antibacterial activity against Escherichia coli ATCC 9637 after 16 hrs by microtiter broth dilution method
- Assay type: functional
- recorded_conditions: W
property_measured: MIC

{"compound": "CCOC(=O)c1csc(/N=C/c2cc(/C=C/C(=O)c3ccco3)cc(C(C)(C)C)c2O)n1", "value_observed": "> 110 µM"}
{"compound": "CCCc1cc(/C=C/C(=O)c2ccco2)cc(/C=N/c2nc(C(=O)OCC)cs2)c1O", "value_observed": "> 102 µM"}
{"compound": "COc1ccc(C(=O)/C=C/c2cc(/C=N/c3nc(-c4ccc(OC)cc4)cs3)c(O)c(C(C)(C)C)c2)cc1", "value_observed": "> 94.9 µM"}
{"compound": "CCOC(=O)c1csc(/N=C/c2cc(/C=C/C(=O)c3cccs3)cc(C(C)(C)C)c2O)n1", "value_observed": "> 107 µM"}
{"compound": "COc1ccc(-c2csc(/N=C/c3cc(/C=C/C(=O)c4ccc(C)cc4)cc(C(C)(C)C)c3O)n2)cc1", "value_observed": "> 97.9 µM"}
{"compound": "OC(Cn1cncn1)(Cn1cncn1)c1ccc(F)cc1F [FLUCONAZOLE]", "value_observed": "> 34.5 µM"}
{"compound": "COc1ccc(-c2csc(/N=C/c3cc(/C=C/C(=O)c4ccc(C)cc4)cc(C(C)(C)C)c3O)n2)cc1OC", "value_observed": "> 92.5 µM"}
{"compound": "CCOC(=O)c1csc(/N=C/c2cc(/C=C/C(=O)c3cccs3)cc(C(C)C)c2O)n1", "value_observed": "> 110 µM"}
{"compound": "CCOC(=O)c1csc(/N=C/c2cc(/C=C/C(=O)c3ccc(C)cc3)cc(C(C)(C)C)c2O)n1", "value_observed": "> 105 µM"}

* * *

- Test system: Sporothrix schenckii
- assay_method_text: Antifungal activity against Sporothrix schenckii after 16 hrs by microtiter broth dilution method
- Format: functional
Quick reference for MIC among some compounds

{"cpd_smiles": "CCOC(=O)c1csc(/N=C/c2cc(/C=C/C(=O)c3ccc(C)cc3)cc(C(C)(C)C)c2O)n1", "MIC": "> 105 µM"}
{"cpd_smiles": "COc1ccc(-c2csc(/N=C/c3cc(/C=C/C(=O)c4ccc(C)cc4)cc(C(C)(C)C)c3O)n2)cc1OC", "MIC": "> 92.5 µM"}
{"cpd_smiles": "COc1ccc(C(=O)/C=C/c2cc(/C=N/c3nc(-c4ccc(OC)cc4)cs3)c(O)c(C(C)(C)C)c2)cc1", "MIC": "> 94.9 µM"}
{"cpd_smiles": "CCOC(=O)c1csc(/N=C/c2cc(/C=C/C(=O)c3cccs3)cc(C(C)(C)C)c2O)n1", "MIC": "> 107 µM"}

* * *

- Test system: Cryptococcus neoformans
- assay_method_text: Antifungal activity against Cryptococcus neoformans after 16 hrs by microtiter broth dilution method
- Type: functional
property_measured: MIC

{"cpd_smiles": "CCOC(=O)c1csc(/N=C/c2cc(/C=C/C(=O)c3ccco3)cc(C(C)(C)C)c2O)n1", "value_observed": "> 110 µM"}
{"cpd_smiles": "CCOC(=O)c1csc(/N=C/c2cc(/C=C/C(=O)c3ccc(C)cc3)cc(C(C)(C)C)c2O)n1", "value_observed": "> 105 µM"}
{"cpd_smiles": "CCCc1cc(/C=C/C(=O)c2ccco2)cc(/C=N/c2nc(C(=O)OCC)cs2)c1O", "value_observed": "> 102 µM"}
{"cpd_smiles": "CCOC(=O)c1csc(/N=C/c2cc(/C=C/C(=O)c3cccs3)cc(C(C)(C)C)c2O)n1", "value_observed": "> 107 µM"}
{"cpd_smiles": "CCOC(=O)c1csc(/N=C/c2cc(/C=C/C(=O)c3ccc(C)cc3)cc(C(C)C)c2O)n1", "value_observed": "> 108 µM"}
